Provenance of the data: the supplement of paper PMC9112550

system: Escherichia coli TOP10; experiment: shrunken log2 fold change of peptide-encoding DNA abundance (4.5 h post-induction vs induction); higher = less antimicrobial activity (less host growth inhibition); settings: time post-induction: 4.5 h; library: site-saturation at positions 5, 18, 19, 20;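 also: peptides expressed intracellularly from a pBAD plasmid library in pooled LB shake-flask culture, induced with 0.3% L-arabinose, DNA abundance read by NGS, three biological replicates, DESeq2 with apeglm shrinkage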
The threshold is inclusive: shrunken log2 fold change of exactly -0.1 counts as True; values below receive False.

Quick check, shrunken log2 fold change >= -0.1? RRIRMRPPRLPRPRPRPPDLPRP True

Reported shrunken log2 fold change at or above -0.1? RRIRGRPPRLPRPRPRPMSYPRP True

Given RRIRIRPPRLPRPRPRPNQNPRP , state whether its shrunken log2 fold change is at least -0.1. False

I'd appreciate it if you could say whether RRIRPRPPRLPRPRPRPDMQPRP has shrunken log2 fold change at least equal to -0.1. False
